experiment: Plasma pharmacokinetics of ALM201 in Phase I patients (validated LC-MS/MS, Phoenix WinNonlin); conditions: human, plasma, sc, 40 mg, Plasma concentration, geometric mean (CV%), 40 mg SC, day 18 cycle 1, 1.5 h after dosing, n = 1; LC-MS/MS
No end group written: not given here.
readout_name: level at 1.5 h (ng/mL)
Report the figure in ng/mL without appending any unit label.

Consider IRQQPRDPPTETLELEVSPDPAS [ALM201] . Its measured level at 1.5 h is 397

###

test: Plasma pharmacokinetics of ALM201 in Phase I patients (validated LC-MS/MS, Phoenix WinNonlin); conditions: human, plasma, sc, 200 mg, Plasma concentration, geometric mean (CV%), 200 mg SC, day 1 cycle 1, 3 h after dosing, n = 4; LC-MS/MS
No end group written: not given here.
readout_name: level at 3 h (ng/mL)
Report the figure in ng/mL without appending any unit label.

Consider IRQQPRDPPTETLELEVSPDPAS [ALM201] . Its measured level at 3 h is 1360

###

test: Plasma pharmacokinetics of ALM201 in Phase I patients (validated LC-MS/MS, Phoenix WinNonlin); details: human, plasma, sc, 300 mg, Plasma concentration, geometric mean (CV%), 300 mg SC, day 18 cycle 6, 2 h after dosing, n = 1; LC-MS/MS
No end group written: not given here.
readout_name: level at 2 h
Reply with the number, then its unit.

Consider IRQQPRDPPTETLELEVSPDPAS [ALM201] . Its measured level at 2 h is 6830 ng/mL

###

experiment: Plasma pharmacokinetics of ALM201 in Phase I patients (validated LC-MS/MS, Phoenix WinNonlin); conditions: human, plasma, sc, 80 mg, AUC0-t, Gmean (CV), 80 mg SC, day 1 cycle 1, n = 3; plasma LC-MS/MS
No end group written: not given here.
readout_name: AUC(0-t)
Reply with the number, then its unit.

Consider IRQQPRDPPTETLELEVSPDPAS [ALM201] . Its measured AUC(0-t) is 3380 ng·h/mL

###

experiment: Plasma pharmacokinetics of ALM201 in Phase I patients (validated LC-MS/MS, Phoenix WinNonlin); settings: human, plasma, sc, 40 mg, Plasma concentration, geometric mean (CV%), 40 mg SC, day 18 cycle 2, 1.5 h after dosing, n = 1; LC-MS/MS
No end group written: not given here.
readout_name: level at 1.5 h
Reply with the number, then its unit.

Consider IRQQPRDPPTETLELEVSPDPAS [ALM201] . Its measured level at 1.5 h is 565 ng/mL

###

experiment: Plasma pharmacokinetics of ALM201 in Phase I patients (validated LC-MS/MS, Phoenix WinNonlin); settings: human, plasma, sc, 200 mg, Cmax, Gmean (CV), 200 mg SC, day 3 cycle 1, n = 4; plasma LC-MS/MS
No end group written: not given here.
readout_name: Cmax (ng/mL)
Report the figure in ng/mL without appending any unit label.

Consider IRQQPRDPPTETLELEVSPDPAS [ALM201] . Its measured Cmax is 1620

###

assay: Plasma pharmacokinetics of ALM201 in Phase I patients (validated LC-MS/MS, Phoenix WinNonlin); conditions: human, plasma, sc, 80 mg, Plasma concentration, geometric mean (CV%), 80 mg SC, day 18 cycle 2, 0.5 h after dosing, n = 1; LC-MS/MS
No end group written: not given here.
readout_name: level at 0.5 h
Reply with the number, then its unit.

Consider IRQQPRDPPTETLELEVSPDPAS [ALM201] . Its measured level at 0.5 h is 394 ng/mL

###

assay: Plasma pharmacokinetics of ALM201 in Phase I patients (validated LC-MS/MS, Phoenix WinNonlin); settings: human, plasma, sc, 300 mg, Plasma concentration, geometric mean (CV%), 300 mg SC, day 18 cycle 2, 2 h after dosing, n = 3; LC-MS/MS
No end group written: not given here.
readout_name: level at 2 h (µg/mL)
Report the figure in µg/mL without appending any unit label.

Consider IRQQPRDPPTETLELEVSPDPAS [ALM201] . Its measured level at 2 h is 2.54

###

test: Plasma pharmacokinetics of ALM201 in Phase I patients (validated LC-MS/MS, Phoenix WinNonlin); details: human, plasma, sc, 10 mg, Tmax, median, 10 mg SC, day 3 cycle 1, n = 1; plasma LC-MS/MS
No end group written: not given here.
readout_name: Tmax (min)
Report the figure in min without appending any unit label.

Consider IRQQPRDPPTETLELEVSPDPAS [ALM201] . Its measured Tmax is 30

###

experiment: Plasma pharmacokinetics of ALM201 in Phase I patients (validated LC-MS/MS, Phoenix WinNonlin); settings: human, plasma, sc, 10 mg, Cmax, Gmean (CV), 10 mg SC, day 18 cycle 4, n = 1; plasma LC-MS/MS
No end group written: not given here.
readout_name: Cmax
Reply with the number, then its unit.

Consider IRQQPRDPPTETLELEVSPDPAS [ALM201] . Its measured Cmax is 193 ng/mL

###

experiment: Plasma pharmacokinetics of ALM201 in Phase I patients (validated LC-MS/MS, Phoenix WinNonlin); details: human, plasma, sc, 200 mg, Plasma concentration, geometric mean (CV%), 200 mg SC, day 3 cycle 1, 3.5 h after dosing, n = 4; LC-MS/MS
No end group written: not given here.
readout_name: level at 3.5 h
Reply with the number, then its unit.

Consider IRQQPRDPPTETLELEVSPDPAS [ALM201] . Its measured level at 3.5 h is 1250 ng/mL

###

experiment: Plasma pharmacokinetics of ALM201 in Phase I patients (validated LC-MS/MS, Phoenix WinNonlin); details: human, plasma, sc, 200 mg, Plasma concentration, geometric mean (CV%), 200 mg SC, day 1 cycle 1, 1.5 h after dosing, n = 4; LC-MS/MS
No end group written: not given here.
readout_name: level at 1.5 h

Consider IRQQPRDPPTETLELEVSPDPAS [ALM201] . Its measured level at 1.5 h is 1240 ng/mL

###

experiment: Urinary excretion of unchanged ALM201 (LC-MS/MS); type: in vivo; details: human, sc, patients with positive urine concentrations, urine collected over 6 h after dosing, day 1 cycle 1, read-out: Amount excreted in the urine, % of the administered dose, mean (±SD)
No end group written: not given here.
readout_name: dose excreted (%)
Report the figure in % without appending any unit label.

Consider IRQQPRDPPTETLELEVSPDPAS [ALM201] . Its measured dose excreted is 0.074

###

test: Plasma pharmacokinetics of ALM201 in Phase I patients (validated LC-MS/MS, Phoenix WinNonlin); conditions: human, plasma, sc, 100 mg, Plasma concentration, geometric mean (CV%), 100 mg SC, day 18 cycle 2, 3.5 h after dosing, n = 1; LC-MS/MS
No end group written: not given here.
readout_name: level at 3.5 h (ng/mL)
Report the figure in ng/mL without appending any unit label.

Consider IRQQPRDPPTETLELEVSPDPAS [ALM201] . Its measured level at 3.5 h is 1180

###

experiment: Plasma pharmacokinetics of ALM201 in Phase I patients (validated LC-MS/MS, Phoenix WinNonlin); settings: human, plasma, sc, 300 mg, Tmax, median, 300 mg SC, day 18 cycle 1, n = 3; plasma LC-MS/MS
No end group written: not given here.
readout_name: Tmax (h)
Report the figure in h without appending any unit label.

Consider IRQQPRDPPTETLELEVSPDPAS [ALM201] . Its measured Tmax is 1.5

###

assay: Plasma pharmacokinetics of ALM201 in Phase I patients (validated LC-MS/MS, Phoenix WinNonlin); details: human, plasma, sc, 80 mg, AUC0-t, Gmean (CV), 80 mg SC, day 18 cycle 1, n = 2, CV not calculated; plasma LC-MS/MS
No end group written: not given here.
readout_name: AUC(0-t) (ng·h/mL)
Report the figure in ng·h/mL without appending any unit label.

Consider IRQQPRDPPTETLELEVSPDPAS [ALM201] . Its measured AUC(0-t) is 3500

###

test: Plasma pharmacokinetics of ALM201 in Phase I patients (validated LC-MS/MS, Phoenix WinNonlin); conditions: human, plasma, sc, 20 mg, Plasma concentration, geometric mean (CV%), 20 mg SC, day 18 cycle 1, 0.5 h after dosing, n = 1; LC-MS/MS
No end group written: not given here.
readout_name: level at 0.5 h (ng/mL)
Report the figure in ng/mL without appending any unit label.

Consider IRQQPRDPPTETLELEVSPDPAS [ALM201] . Its measured level at 0.5 h is 194

###

assay: Plasma pharmacokinetics of ALM201 in Phase I patients (validated LC-MS/MS, Phoenix WinNonlin); details: human, plasma, sc, 20 mg, Plasma concentration, geometric mean (CV%), 20 mg SC, day 3 cycle 1, 2 h after dosing, n = 1; LC-MS/MS
No end group written: not given here.
readout_name: level at 2 h (ng/mL)
Report the figure in ng/mL without appending any unit label.

Consider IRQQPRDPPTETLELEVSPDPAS [ALM201] . Its measured level at 2 h is 377
